System tested: human Urokinase (Homo sapiens)
pKi: −log10 of the molar value.
Readout name: pKi

> print(dat)
                            compound.string  readout.name  measured.value
1  N=C(N)c1cc2cc(-c3cc(CC(=O)N4CCS(=O)(=O)CC4)cc(-c4ccccc4)c3O)[nH]c2cc1Cl           pKi            8.40
